src = ChEMBL document CHEMBL5291721

- Tested Target: UniProtKB P21554
- Sequence (P21554 whole entry): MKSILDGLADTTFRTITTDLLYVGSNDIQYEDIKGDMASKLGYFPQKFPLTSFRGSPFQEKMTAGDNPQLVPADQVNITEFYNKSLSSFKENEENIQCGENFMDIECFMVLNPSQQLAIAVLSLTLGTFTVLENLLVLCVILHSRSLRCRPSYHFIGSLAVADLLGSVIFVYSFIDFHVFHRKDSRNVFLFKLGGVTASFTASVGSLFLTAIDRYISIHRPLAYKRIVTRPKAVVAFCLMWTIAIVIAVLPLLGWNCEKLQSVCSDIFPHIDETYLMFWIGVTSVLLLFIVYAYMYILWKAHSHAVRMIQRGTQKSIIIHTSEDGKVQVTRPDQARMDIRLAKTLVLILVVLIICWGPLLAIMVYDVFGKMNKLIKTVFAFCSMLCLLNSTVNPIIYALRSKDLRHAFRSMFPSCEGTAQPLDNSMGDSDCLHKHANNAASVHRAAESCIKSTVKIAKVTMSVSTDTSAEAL
AC50: recorded values

The following molecules have reported results that may help.
[[record]]
molecule = "Cc1ccc(-c2nc3ccc(C)cn3c2CC(=O)N(C)C)cc1"
metric_name = "AC50"
readout_value = "> 30 µM"

[[record]]
molecule = "CN(C)CCCN1c2ccccc2Sc2ccccc21"
metric_name = "AC50"
readout_value = "> 10 µM"

[[record]]
molecule = "CCN(CC)CCOC(=O)c1ccc(N)cc1"
metric_name = "AC50"
readout_value = "> 10 µM"

[[record]]
molecule = "CC(=O)O[C@@]12CO[C@@H]1C[C@H](O)[C@@]1(C)C(=O)[C@H](O)C3=C(C)[C@@H](OC(=O)[C@H](O)[C@@H](NC(=O)OC(C)(C)C)c4ccccc4)C[C@@](O)([C@@H](OC(=O)c4ccccc4)[C@H]21)C3(C)C [DOCETAXEL ANHYDROUS]"
metric_name = "AC50"
readout_value = "> 30 µM"

[[record]]
molecule = "CCN(CC)CCNC(=O)c1cc(Cl)c(N)cc1OC [METOCLOPRAMIDE]"
metric_name = "AC50"
readout_value = "> 10 µM"

[[record]]
molecule = "CCC1(C2=CCCCCC2)C(=O)NC(=O)NC1=O"
metric_name = "AC50"
readout_value = "> 10 µM"

[[record]]
molecule = "CN[C@@H](C)[C@H](O)c1ccccc1"
metric_name = "AC50"
readout_value = "> 10 µM"

[[record]]
molecule = "CC(C(=O)O)c1ccc(C(=O)c2cccs2)cc1 (centres undefined)"
metric_name = "AC50"
readout_value = "> 10 µM"


Need AC50, item `CC1=CC(=O)c2ccccc2C1=O`
> 10 µM

Another: O=C1CCC(N2C(=O)c3ccccc3C2=O)C(=O)N1 (centres undefined) [THALIDOMIDE]
> 10 µM

Note, next up: CN1C(=O)CC(c2ccccc2)C1=O (centres undefined) [PHENSUXIMIDE]
> 10 µM

How about this molecule: CN1CCC2=C(C1)C(c1ccccc1)c1ccccc12 (centres undefined)
> 10 µM

Then `COC(=O)N[C@H](C(=O)N[C@@H](Cc1ccccc1)[C@@H](O)CN(Cc1ccc(-c2ccccn2)cc1)NC(=O)[C@@H](NC(=O)OC)C(C)(C)C)C(C)(C)C` ?
> 10 µM

Moving on to CC(C)NCC1CCc2cc(CO)c([N+](=O)[O-])cc2N1 (centres undefined)
> 10 µM

Try this molecule too: CN(C)C(=O)OC1N=C(c2ccccc2)c2cc(Cl)ccc2N(C)C1=O (centres undefined)
> 10 µM

// next record `CN(C/C=C/c1ccccc1)Cc1cccc2ccccc12`
9.87 µM

Check CC(C)C(=O)Nc1ccc([N+](=O)[O-])c(C(F)(F)F)c1 [FLUTAMIDE] too.
> 10 µM

How about this molecule: `CO/N=C(\C(=O)N[C@@H]1C(=O)N2C(C(=O)[O-])=C(C[N+]3(C)CCCC3)CS[C@H]12)c1csc(N)n1`
> 30 µM

Repeat for the following molecule: NC(=O)C[S+]([O-])C(c1ccccc1)c1ccccc1 (centres undefined)
> 10 µM
